Target: DNMT3B (DNMT3b1) (Homo sapiens, UniProt Q9UBC3 Q9UBC3:1-853)
Experiment: inhibition; tritiated methyl incorporation from SAM; IC50 not estimable in Table 4
pIC50: −log10 of the molar value.
measure: pIC50

Item under review: MTC-424 (dsDNA, 5-aza-5,6-dihydro-dC at 8 of F strand; phosphodiester [F strand: 8]) DNA 1: GTACATGCGCTCCAGA DNA 2: TCTGGAGCGCATGTAC . Reported pIC50? < 4.00

Origin of values: patent US20150167004
